Source: paper PMC9780517

system: hiPSC-CMs; experiment: Myocardial cell activity; type: cell-based, human; settings: concentration relative to ETPC
ASSAY_READOUT: Effect on BPM (beats per minute)

INSERT INTO measurements (compound, measured_value) VALUES
  ('COc1ccc([C@@H]2Sc3ccccc3N(CCN(C)C)C(=O)[C@@H]2OC(C)=O)cc1', 'BPM was decreased'),
  ('Cc1nc2n(c(=O)c1CCN1CCC(c3noc4cc(F)ccc34)CC1)CCCC2', 'decrease BPM'),
  ('Cc1cccc(C)c1OCC(C)N (stereo not shown)', 'BPM was decreased'),
  ('COc1ccc(CCN2CCC(Nc3nc4ccccc4n3Cc3ccc(F)cc3)CC2)cc1', 'decrease BPM');

----------
system: hiPSC-CMs; test: Myocardial cell activity; assay type: cell-based, human; conditions: concentration relative to ETPC
ASSAY_READOUT: Effect on BPM (beats per minute)

INSERT INTO measurements (compound, system_tested, measured_value) VALUES
  ('COCCc1ccc(OCC(O)CNC(C)C)cc1 (centres unmarked)', 'hiPSC-CMs', 'BPM was decreased'),
  ('CC/C(=C(\c1ccccc1)c1ccc(OCCN(C)C)cc1)c1ccccc1', 'hiPSC-CMs', 'BPM was decreased');

----------
Entries annotated with measured Concentration at which FPDc prolongation was observed
test system: hiPSC-CMs; experiment: Field potential; assay type: cell-based, human
ASSAY_READOUT: Concentration at which FPDc prolongation was observed

INSERT INTO results (compound, system_tested, measured_value) VALUES
  ('Cc1cccc(C)c1OCC(C)N (stereo not shown)', 'hiPSC-CMs', '1.2 times of the ETPC'),
  ('COc1ccccc1OCC(O)CN1CCN(CC(=O)Nc2c(C)cccc2C)CC1 (stereo not shown)', 'hiPSC-CMs', '51 % of the ETPC'),
  ('COCCc1ccc(OCC(O)CNC(C)C)cc1 (stereo not shown)', 'hiPSC-CMs', '6 % of the ETPC'),
  ('CN1CCN(C2=Nc3cc(Cl)ccc3Nc3ccccc32)CC1', 'hiPSC-CMs', '42 % of the ETPC');

----------
tested on: hiPSC-CMs; test: Field potential; format: cell-based, human
Entries annotated with measured Concentration at which arrhythmia-like waveforms were observed
ASSAY_READOUT: Concentration at which arrhythmia-like waveforms were observed

INSERT INTO results (compound, measured_value) VALUES
  ('Cc1nc2n(c(=O)c1CCN1CCC(c3noc4cc(F)ccc34)CC1)CCCC2', '555.6 times of the ETPC'),
  ('COc1ccccc1OCC(O)CN1CCN(CC(=O)Nc2c(C)cccc2C)CC1 (stereo not drawn)', '15.4 times of the ETPC'),
  ('CCOC(=O)C1=C(C)NC(C)=C(C(=O)OC)C1c1cccc([N+](=O)[O-])c1 (stereo not drawn)', '331.1 times of the ETPC'),
  ('CC(C)COCC(CN(Cc1ccccc1)c1ccccc1)N1CCCC1 (stereo not drawn)', '312.5 times of the ETPC'),
  ('Cc1nccn1CC1CCc2c(c3ccccc3n2C)C1=O (stereo not drawn)', '81 % of the ETPC'),
  ('CN(CCOc1ccc(NS(C)(=O)=O)cc1)CCc1ccc(NS(C)(=O)=O)cc1 [Dofetilide]', '> 150 times of the ETPC'),
  ('O=C(NCC1CCCCN1)c1cc(OCC(F)(F)F)ccc1OCC(F)(F)F (stereo not drawn) [Flecainide]', '1.33 times of the ETPC'),
  ('CC/C(=C(\c1ccccc1)c1ccc(OCCN(C)C)cc1)c1ccccc1', '142.9 times of the ETPC'),
  ('CCCCCCCN(CC)CCCC(O)c1ccc(NS(C)(=O)=O)cc1 (stereo not drawn) [Ibutilide]', '10 % of the ETPC');
